All figures here come from paper PMC10786891.

- TEST_TARGET: T1, EsCas13d, nuclease-dead (Eubacterium siraeum, UniProt B0MS50, R295A;H300A;R849A;H854A)
- T1 sequence: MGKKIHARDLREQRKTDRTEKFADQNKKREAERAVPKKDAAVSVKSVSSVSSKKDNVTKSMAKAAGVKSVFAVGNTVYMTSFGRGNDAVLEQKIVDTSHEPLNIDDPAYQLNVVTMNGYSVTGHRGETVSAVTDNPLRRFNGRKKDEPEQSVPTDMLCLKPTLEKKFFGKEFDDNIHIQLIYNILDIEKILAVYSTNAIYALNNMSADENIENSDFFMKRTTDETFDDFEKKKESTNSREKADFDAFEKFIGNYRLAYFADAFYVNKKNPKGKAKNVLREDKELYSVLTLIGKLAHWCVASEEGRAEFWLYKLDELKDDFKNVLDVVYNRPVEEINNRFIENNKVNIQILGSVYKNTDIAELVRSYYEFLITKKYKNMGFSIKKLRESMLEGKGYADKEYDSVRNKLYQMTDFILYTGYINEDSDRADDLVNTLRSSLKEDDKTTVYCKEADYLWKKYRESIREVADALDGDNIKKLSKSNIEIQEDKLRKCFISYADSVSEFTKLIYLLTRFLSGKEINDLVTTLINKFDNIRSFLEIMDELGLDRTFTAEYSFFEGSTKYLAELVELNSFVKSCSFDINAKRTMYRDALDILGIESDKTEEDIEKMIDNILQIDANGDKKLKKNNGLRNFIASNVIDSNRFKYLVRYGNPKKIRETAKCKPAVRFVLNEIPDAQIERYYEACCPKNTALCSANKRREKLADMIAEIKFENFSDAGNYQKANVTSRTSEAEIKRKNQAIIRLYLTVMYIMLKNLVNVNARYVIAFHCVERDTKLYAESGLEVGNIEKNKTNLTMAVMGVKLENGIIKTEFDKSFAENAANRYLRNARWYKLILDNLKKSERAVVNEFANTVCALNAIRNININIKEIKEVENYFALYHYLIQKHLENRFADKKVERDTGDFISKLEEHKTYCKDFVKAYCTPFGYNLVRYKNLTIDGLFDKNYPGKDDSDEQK
- ASSAY_OVERVIEW: crRNA (strand 1, pre-loaded); Mg2+; 40 mM Tris-HCl pH 7.5, 150 mM NaCl, 6 mM MgCl2, 1 mM DTT, 0.1% Tween-20, 0.2 mg/ml BSA; 25 C; 10 min per concentration, then washed
- SETUP_CONDITIONS: tags: His6-TwinStrep-SUMO cleaved; N-terminal SNAP kept (SNAP-Surface 488); label: 3' end held by stalled T7 RNA polymerase
MEASUREMENT_NAME: pKd
Entry type: numeric. Quantity: pKd, the -log10 of concentration in molar units.

-- ask Respond only with pKd recorded for target 1 insU 3' of 17,insU 3' of 17 (mixed) RNA 1: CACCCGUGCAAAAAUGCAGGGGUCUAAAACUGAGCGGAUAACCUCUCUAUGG RNA 2: GGGAAUGGAUCCACAUCUACGAAUUCGUACCAUAGUUAGAGGUUAUCCGCUCACCGAGAUCGGAAGAGCACACGU
-- reply 7.56

-- ask Respond only with pKd recorded for target 1 MT 5'PFS GCA 3'PFS CUG (mixed) RNA 1: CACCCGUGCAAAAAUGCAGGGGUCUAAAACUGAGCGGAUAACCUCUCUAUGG RNA 2: GGGAAUGGAUCCACAUCUACGAAUUCGCACCAUAGAGAGGUUAUCCGCUCACUGAGAUCGGAAGAGCACACGU
-- reply 7.92

-- ask Respond only with pKd recorded for target 2 MT 5'PFS GGG 3'PFS CUG (mixed) RNA 1: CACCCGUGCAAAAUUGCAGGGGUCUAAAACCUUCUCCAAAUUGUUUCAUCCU RNA 2: GGGAAUGGAUCCACAUCUACGAAUUCGGGAGGAUGAAACAAUUUGGAGAAGCUGAGAUCGGAAGAGCACACGU
-- reply 7.93

-- ask Respond only with pKd recorded for target 3 insA 3' of 10,insU 3' of 3 (mixed) RNA 1: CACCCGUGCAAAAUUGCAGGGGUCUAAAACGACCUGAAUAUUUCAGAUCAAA RNA 2: GGGAAUGGAUCCACAUCUACGAAUUCGUUUUUGAUCUGAAAUAAUUCAGGUUCUGCAGAUCGGAAGAGCACACGU
-- reply 7.17
